Assay: Metabolic stability in human liver microsomes assessed as intrinsic clearance at 1 uM incubated for 30 mins in presence of NADPH by LC-MS/MS analysis
Format: ADME, Microsome
Conditions: liver microsomes, read-out: CLH
Would you kindly list microsomal CLint at 1 µM for each of these compounds?
Give bare numbers, in µL/min/mg.

Known microsomal CLint at 1 µM results, listed for orientation:
Compound	microsomal CLint at 1 µM / µL/min/mg
CC(C)Oc1ccccc1C(=O)Nc1ccccc1C(=O)Nc1cccc(S(=O)(=O)C(F)(F)F)c1	55
COc1ccccc1C(=O)N[C@@H]1CCCC[C@@H]1C(=O)Nc1cccc(S(=O)(=O)C(F)(F)F)c1 (racemic)	242
COc1cc(F)c(-c2ccc(C(=O)O)cc2)cc1C(=O)N[C@H]1[C@@H](C(=O)Nc2cccc(S(=O)(=O)C(F)(F)F)c2)[C@@H]2C=C[C@H]1C2 (racemic)	6.3

// input: 8 compounds below; output: microsomal CLint at 1 µM for each
1. COc1ccccc1C(=O)N[C@@H]1CCC[C@@H]1C(=O)Nc1cccc(S(=O)(=O)C(F)(F)F)c1 (racemic)
2. COc1cc(F)c(-c2ccc(S(N)(=O)=O)cc2)cc1C(=O)N[C@@H]1[C@H]2CC[C@H](C2)[C@@H]1C(=O)Nc1cccc(S(=O)(=O)C(F)(F)F)c1
3. COc1cc(F)c(-c2ccccc2)cc1C(=O)N[C@@H]1[C@H](C(=O)Nc2cccc(S(=O)(=O)C(F)(F)F)c2)[C@H]2C=C[C@@H]1C2 (racemic)
4. COc1cc(F)c(-c2ccc(C(=O)O)cc2)cc1C(=O)N[C@@H]1[C@H](C(=O)Nc2cccc(S(=O)(=O)C(F)(F)F)c2)[C@H]2C=C[C@@H]1C2
5. COc1cc(F)c(-c2ccc(CC(=O)O)cc2)cc1C(=O)N[C@H]1[C@@H](C(=O)Nc2cccc(S(=O)(=O)C(F)(F)F)c2)[C@@H]2C=C[C@H]1C2 (racemic)
6. COc1cnc(-c2ccc(C(=O)O)cc2)cc1C(=O)N[C@H]1[C@@H](C(=O)Nc2cccc(S(=O)(=O)C(F)(F)F)c2)[C@@H]2C=C[C@H]1C2 (racemic)
7. COc1cc(F)c(-c2ccc(C(=O)O)cc2)cc1C(=O)N[C@@H]1[C@H]2CC[C@H](C2)[C@@H]1C(=O)Nc1cccc(S(=O)(=O)C(F)(F)F)c1
8. COc1ccccc1C(=O)N[C@@H]1[C@H](C(=O)Nc2cccc(S(=O)(=O)C(F)(F)F)c2)[C@H]2C=C[C@@H]1C2 (racemic)

### Response
1. 174
2. 74
3. 110
4. 9.9
5. 4.6
6. 7
7. 16
8. 300

// input: 5 compounds below; output: microsomal CLint at 1 µM for each
1. COc1ccccc1C(=O)N[C@H]1CN(C)C[C@H]1C(=O)Nc1cccc(S(=O)(=O)C(F)(F)F)c1 (racemic)
2. COc1ccccc1C(=O)Nc1ccccc1C(=O)Nc1cccc(S(=O)(=O)C(F)(F)F)c1
3. COc1ccccc1C(=O)N[C@H]1[C@@H](C(=O)Nc2cccc(S(=O)(=O)C(F)(F)F)c2)[C@@H]2C=C[C@H]1C2
4. COc1ccccc1C(=O)N[C@H]1[C@@H](C(=O)Nc2cccc(S(=O)(=O)C(F)(F)F)c2)[C@H]2C=C[C@@H]1C2 (racemic)
5. COc1cc(F)c(-c2ncc(C(=O)O)s2)cc1C(=O)N[C@H]1[C@@H](C(=O)Nc2cccc(S(=O)(=O)C(F)(F)F)c2)[C@@H]2C=C[C@H]1C2 (racemic)

### Response
[173, 12, 44, 140, 13]

### Prompt Would you mind telling me what microsomal CLint at 1 µM value was observed for COc1cc(F)c(-c2ccc(C[C@H](C(=O)O)N(C)C)cc2)cc1C(=O)N[C@@H]1[C@H]2CC[C@H](C2)[C@@H]1C(=O)Nc1cccc(S(=O)(=O)C(F)(F)F)c1 ?
### Response 28
